Source of measurements: ChEMBL document CHEMBL1139496

Target: Histamine H3 receptor (Homo sapiens)
Sequence (Q9Y5N1 whole entry): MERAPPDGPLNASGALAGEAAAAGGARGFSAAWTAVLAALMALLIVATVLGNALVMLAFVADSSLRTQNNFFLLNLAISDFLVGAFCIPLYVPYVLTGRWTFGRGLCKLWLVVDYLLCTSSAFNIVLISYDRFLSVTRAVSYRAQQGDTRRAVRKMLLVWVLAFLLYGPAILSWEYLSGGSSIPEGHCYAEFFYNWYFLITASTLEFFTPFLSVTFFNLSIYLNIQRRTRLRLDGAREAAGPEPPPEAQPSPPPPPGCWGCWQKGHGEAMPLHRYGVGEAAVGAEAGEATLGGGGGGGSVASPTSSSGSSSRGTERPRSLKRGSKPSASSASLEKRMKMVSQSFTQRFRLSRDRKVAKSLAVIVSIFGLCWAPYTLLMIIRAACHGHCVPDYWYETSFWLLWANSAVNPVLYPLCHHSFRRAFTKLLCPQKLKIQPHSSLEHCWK
Test: Tested for its ability to block human histamine H3 receptor activation by the agonist R-alpha-methyl histamine in a [Ca2+] flux assay
Assay type: functional
Collected pKb values appear next to each entry.

>  <Record Smiles>
C[C@@H]1CCCN1CCc1cc2cc(-c3cccc(C(C)(C)O)c3)ccc2o1

>  <Assayed System>
Histamine H3 receptor (Homo sapiens)

>  <pKb>
8.12

$$$$
>  <Record Smiles>
C[C@@H]1CCCN1CCc1cc2cc(-c3cccc(CO)c3)ccc2o1

>  <Assayed System>
Histamine H3 receptor (Homo sapiens)

>  <pKb>
8.42

$$$$
>  <Record Smiles>
Cc1ccc(C(=O)c2ccc3oc(CCN4CCC[C@H]4C)cc3c2)cc1

>  <Assayed System>
Histamine H3 receptor (Homo sapiens)

>  <pKb>
7.93

$$$$

---

Listing of recorded clearance by entry.
Test: Clearance was observed in monkey after intravenous administration of 1-5 mg/kg
Type: ADME, organism-based
Details: cercopithecidae, blood, read-out: CLb (converted)

>  <Record Smiles>
C[C@@H]1CCCN1CCc1cc2cc(-c3ccc(C#N)cc3)ccc2o1

>  <clearance>
5 mL/min/kg

$$$$
>  <Record Smiles>
C[C@@H]1CCCN1CCc1cc2cc(C(=O)c3ccc(F)cc3)ccc2o1

>  <clearance>
15 mL/min/kg

$$$$
>  <Record Smiles>
C[C@@H]1CCCN1CCc1cc2cc(C(=O)c3cccc(F)c3)ccc2o1

>  <clearance>
27 mL/min/kg

$$$$
>  <Record Smiles>
CC(=O)c1cccc(-c2ccc3oc(CCN4CCC[C@H]4C)cc3c2)c1

>  <clearance>
28.3 mL/min/kg

$$$$
>  <Record Smiles>
C[C@@H]1CC[C@@H](C)N1CCCOc1ccc(-c2ccc(C(=O)N3CCOCC3)cc2)cc1

>  <clearance>
16.7 mL/min/kg

$$$$

---

Test: Volume of distribution was observed in rat after intravenous administration of 1-5 mg/kg
Format: ADME, organism-based
Conditions: in vivo
Metric: Volume (L/kg)

>  <Record Smiles>
Cc1cc(C(=O)c2ccc3oc(CCN4CCC[C@H]4C)cc3c2)ccc1F

>  <Metric>
Volume

>  <Unit Of Measure>
L/kg

>  <Numeric Readout>
26.8

$$$$
>  <Record Smiles>
C[C@@H]1CCCN1CCc1cc2cc(C(=O)c3cccc(Cl)c3)ccc2o1

>  <Metric>
Volume

>  <Unit Of Measure>
L/kg

>  <Numeric Readout>
10.5

$$$$
>  <Record Smiles>
C[C@H]1CCCN1CCc1cc2cc(-c3ccc(C#N)cc3)ccc2o1

>  <Metric>
Volume

>  <Unit Of Measure>
L/kg

>  <Numeric Readout>
12.4

$$$$
>  <Record Smiles>
O=C(c1ccc(OCCCc2cnc[nH]2)cc1)C1CC1

>  <Metric>
Volume

>  <Unit Of Measure>
L/kg

>  <Numeric Readout>
2.5

$$$$

---

Target: CYP2C9 (Homo sapiens, UniProt P11712)
Sequence (P11712 whole entry): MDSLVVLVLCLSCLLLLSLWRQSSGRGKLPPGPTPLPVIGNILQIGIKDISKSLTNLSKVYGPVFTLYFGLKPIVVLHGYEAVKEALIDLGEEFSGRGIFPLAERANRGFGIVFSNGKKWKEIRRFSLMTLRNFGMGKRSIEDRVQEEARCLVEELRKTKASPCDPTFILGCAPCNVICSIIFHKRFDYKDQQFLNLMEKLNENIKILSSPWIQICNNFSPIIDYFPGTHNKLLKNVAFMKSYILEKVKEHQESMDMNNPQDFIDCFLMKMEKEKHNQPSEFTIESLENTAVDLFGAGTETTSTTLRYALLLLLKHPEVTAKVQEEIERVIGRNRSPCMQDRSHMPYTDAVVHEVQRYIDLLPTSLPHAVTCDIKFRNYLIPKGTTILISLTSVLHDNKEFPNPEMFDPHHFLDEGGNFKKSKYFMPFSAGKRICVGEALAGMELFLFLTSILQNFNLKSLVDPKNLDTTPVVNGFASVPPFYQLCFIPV
Assay: Inhibition of CYP2C9 at 2 uM assessed by effect on rate of oxidation of Tolbutamide hydroxylation upon incubation with human liver microsomes
Type: ADME, Microsome
Conditions: probe tolbutamide (hydroxylation)
Metric: inhibition at 2 µM (%)

>  <Record Smiles>
C[C@@H]1CCCN1CCc1cc2cc(-c3ccc(C#N)cc3)ccc2o1

>  <Assayed System>
CYP2C9 (Homo sapiens, UniProt P11712)

>  <Unit Of Measure>
%

>  <Numeric Readout>
0

$$$$

---

Target: CYP2D6 (Homo sapiens)
Experiment: Inhibition of CYP2D6 at 2 uM assessed by effect on rate of oxidation of dextromethorphan O-demethylation upon incubation with human liver microsomes
Type: ADME, Microsome
Details: probe dextromethorphan (O-demethylation)

>  <Record Smiles>
C[C@@H]1CCCN1CCc1cc2cc(-c3ccc(C#N)cc3)ccc2o1

>  <Unit Of Measure>
%

>  <inhibition at 2 µM>
2.2

$$$$

---

Test: Clearance was observed in dog after intravenous administration of 1-5 mg/kg
Type: ADME, organism-based, Canis lupus familiaris
Details: blood, read-out: CLb (converted)
Rule: t for clearance not less than 20 mL/min/kg, f for anything less.

>  <Record Smiles>
C[C@@H]1CCCN1CCc1cc2cc(C(=O)c3cccc(F)c3)ccc2o1

>  <Assigned Label>
t

$$$$
>  <Record Smiles>
C[C@@H]1CCCN1CCc1cc2cc(-c3ccc(C#N)cc3)ccc2o1

>  <Assigned Label>
f

$$$$
>  <Record Smiles>
C[C@@H]1CC[C@@H](C)N1CCCOc1ccc(-c2ccc(C(=O)N3CCOCC3)cc2)cc1

>  <Assigned Label>
f

$$$$
>  <Record Smiles>
CC(=O)c1cccc(-c2ccc3oc(CCN4CCC[C@H]4C)cc3c2)c1

>  <Assigned Label>
t

$$$$

---

# bioavailability annotations
Test: Oral bioavailability in rat (dose 1-5 mg/kg i.v.)
Type: ADME, organism-based
Conditions: in vivo
Metric: bioavailability (%)

>  <Molecule>
CC(O)c1cccc(-c2ccc3oc(CCN4CCC[C@H]4C)cc3c2)c1 (stereo partly drawn)

>  <Numeric Readout>
55

$$$$
>  <Molecule>
C[C@@H]1CC[C@@H](C)N1CCCOc1ccc(-c2ccc(C(=O)N3CCOCC3)cc2)cc1

>  <Numeric Readout>
121

$$$$
>  <Molecule>
C[C@H]1CCCN1CCc1cc2cc(-c3ccc(C#N)cc3)ccc2o1

>  <Numeric Readout>
73

$$$$

---

Biological target: CYP2D6 (Homo sapiens, UniProt P10635)
Sequence (P10635 whole entry): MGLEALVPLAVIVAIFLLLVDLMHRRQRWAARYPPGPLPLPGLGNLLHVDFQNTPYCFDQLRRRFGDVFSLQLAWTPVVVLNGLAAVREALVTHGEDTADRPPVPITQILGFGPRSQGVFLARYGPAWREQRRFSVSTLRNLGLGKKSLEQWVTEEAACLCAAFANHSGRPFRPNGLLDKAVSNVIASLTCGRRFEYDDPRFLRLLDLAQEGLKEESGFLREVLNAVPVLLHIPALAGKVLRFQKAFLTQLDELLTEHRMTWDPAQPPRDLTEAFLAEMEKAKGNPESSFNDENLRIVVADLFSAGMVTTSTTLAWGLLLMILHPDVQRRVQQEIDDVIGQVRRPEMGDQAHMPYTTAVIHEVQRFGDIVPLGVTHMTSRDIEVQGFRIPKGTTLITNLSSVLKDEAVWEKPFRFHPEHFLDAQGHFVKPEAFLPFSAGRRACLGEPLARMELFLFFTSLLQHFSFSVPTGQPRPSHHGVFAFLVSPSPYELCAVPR
Assay: Inhibition of CYP2D6 at 20 uM assessed by effect on rate of oxidation of dextromethorphan O-demethylation upon incubation with human liver microsomes
Type: ADME, Microsome
Details: probe dextromethorphan (O-demethylation)

>  <Record Smiles>
C[C@@H]1CCCN1CCc1cc2cc(-c3ccc(C#N)cc3)ccc2o1

>  <inhibition at 20 µM [%]>
23.6

$$$$

---

Molecular target: CYP2E1 (Homo sapiens, UniProt P05181)
Sequence (P05181 whole entry): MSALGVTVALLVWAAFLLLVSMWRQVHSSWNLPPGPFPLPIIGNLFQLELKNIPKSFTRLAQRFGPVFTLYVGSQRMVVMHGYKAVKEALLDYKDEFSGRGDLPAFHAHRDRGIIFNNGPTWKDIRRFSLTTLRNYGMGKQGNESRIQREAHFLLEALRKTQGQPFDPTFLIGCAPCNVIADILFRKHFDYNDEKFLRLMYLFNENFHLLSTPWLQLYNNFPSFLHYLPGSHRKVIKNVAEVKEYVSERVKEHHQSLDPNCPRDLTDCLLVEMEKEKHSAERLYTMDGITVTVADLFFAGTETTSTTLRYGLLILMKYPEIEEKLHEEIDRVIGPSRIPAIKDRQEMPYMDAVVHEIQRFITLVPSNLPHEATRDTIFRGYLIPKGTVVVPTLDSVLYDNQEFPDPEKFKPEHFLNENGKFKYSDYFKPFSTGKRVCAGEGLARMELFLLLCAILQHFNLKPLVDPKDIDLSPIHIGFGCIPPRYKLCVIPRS
Test: Inhibition of CYP2E1 at 20 uM assessed by effect on rate of oxidation of chlorzoxazone 6-hydroxylation upon incubation with human liver microsomes
Format: ADME, Microsome
Conditions: probe chlorzoxazone (6-hydroxylation)

>  <Record Smiles>
C[C@@H]1CCCN1CCc1cc2cc(-c3ccc(C#N)cc3)ccc2o1

>  <Unit Of Measure>
%

>  <inhibition at 20 µM>
1.6

$$$$

---

Target: CYP3A4 (Homo sapiens, UniProt P08684)
Sequence (P08684 whole entry): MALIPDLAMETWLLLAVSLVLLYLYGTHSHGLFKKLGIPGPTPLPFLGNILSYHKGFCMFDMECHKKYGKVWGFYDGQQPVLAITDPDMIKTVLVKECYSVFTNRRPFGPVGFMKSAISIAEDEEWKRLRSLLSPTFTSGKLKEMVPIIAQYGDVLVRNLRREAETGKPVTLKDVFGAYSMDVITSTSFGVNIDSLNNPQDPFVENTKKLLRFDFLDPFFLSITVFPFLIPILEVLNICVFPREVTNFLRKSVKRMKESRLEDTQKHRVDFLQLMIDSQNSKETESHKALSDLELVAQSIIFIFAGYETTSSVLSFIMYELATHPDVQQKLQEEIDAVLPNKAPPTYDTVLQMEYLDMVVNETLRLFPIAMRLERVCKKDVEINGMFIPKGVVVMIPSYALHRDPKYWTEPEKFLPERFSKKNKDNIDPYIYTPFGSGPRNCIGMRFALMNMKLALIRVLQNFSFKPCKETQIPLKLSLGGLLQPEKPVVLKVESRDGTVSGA
Assay: Inhibition of CYP3A4 at 20 uM assessed by effect on rate of oxidation of terfenadine hydroxylation upon incubation with human liver microsomes
Type: ADME, Microsome
Settings: probe terfenadine (hydroxylation)

>  <Record Smiles>
C[C@@H]1CCCN1CCc1cc2cc(-c3ccc(C#N)cc3)ccc2o1

>  <Assayed System>
CYP3A4 (Homo sapiens, UniProt P08684)

>  <inhibition at 20 µM>
3.2%

$$$$

---

Biological target: CYP2A6 (Homo sapiens)
Sequence (P11509 whole entry): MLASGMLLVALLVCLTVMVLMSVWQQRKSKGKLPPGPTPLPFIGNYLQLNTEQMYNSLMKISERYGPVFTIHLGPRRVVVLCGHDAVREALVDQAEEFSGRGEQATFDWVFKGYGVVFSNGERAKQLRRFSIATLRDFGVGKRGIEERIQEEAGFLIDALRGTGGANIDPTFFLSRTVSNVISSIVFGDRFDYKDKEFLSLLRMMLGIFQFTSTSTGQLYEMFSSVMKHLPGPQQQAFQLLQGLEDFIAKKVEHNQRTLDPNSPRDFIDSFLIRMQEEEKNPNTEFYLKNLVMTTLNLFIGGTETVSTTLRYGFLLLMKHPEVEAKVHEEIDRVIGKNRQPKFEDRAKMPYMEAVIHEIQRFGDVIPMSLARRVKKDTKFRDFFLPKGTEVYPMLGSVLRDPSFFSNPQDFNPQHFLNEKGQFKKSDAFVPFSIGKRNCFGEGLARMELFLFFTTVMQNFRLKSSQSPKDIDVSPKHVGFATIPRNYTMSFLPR
Experiment: Inhibition of CYP2A6 at 2 uM, assessed by effect on rate of oxidation of coumarin 7-hydroxylation upon incubation with human liver microsomes
Type: ADME, Microsome
Conditions: probe coumarin (7-hydroxylation)

>  <Record Smiles>
C[C@@H]1CCCN1CCc1cc2cc(-c3ccc(C#N)cc3)ccc2o1

>  <Assayed System>
CYP2A6 (Homo sapiens)

>  <inhibition at 2 µM>
4%

$$$$

---

Each entry below carries its reported half-life.
Assay: Half life was observed in rat after intravenous administration of 1-5 mg/kg; (n=3)
Conditions: in vivo
Metric: half-life (min)

>  <Record Smiles>
C[C@@H]1CCCN1CCc1cc2cc(-c3cccc(C#N)c3)ccc2o1

>  <Numeric Readout>
258

$$$$
>  <Record Smiles>
C[C@@H]1CCCN1CCc1cc2cc(-c3ccc(C#N)cc3)ccc2o1

>  <Numeric Readout>
318

$$$$
>  <Record Smiles>
Cc1cc(C(=O)c2ccc3oc(CCN4CCC[C@H]4C)cc3c2)ccc1F

>  <Numeric Readout>
198

$$$$
>  <Record Smiles>
C[C@@H]1CCCN1CCc1cc2cc(C(=O)c3ccccc3)ccc2o1

>  <Numeric Readout>
216

$$$$
>  <Record Smiles>
CC(=O)c1cccc(-c2ccc3oc(CCN4CCC[C@H]4C)cc3c2)c1

>  <Numeric Readout>
180

$$$$
>  <Record Smiles>
C[C@@H]1CCCN1CCc1cc2cc(-c3cccc(CO)c3)ccc2o1

>  <Numeric Readout>
180

$$$$
>  <Record Smiles>
C[C@@H]1CCCN1CCc1cc2cc(-c3ccc(C(=O)C4CC4)cc3)ccc2o1

>  <Numeric Readout>
558

$$$$

---

Biological target: CYP1A2 (Homo sapiens, UniProt P05177)
Sequence (P05177 whole entry): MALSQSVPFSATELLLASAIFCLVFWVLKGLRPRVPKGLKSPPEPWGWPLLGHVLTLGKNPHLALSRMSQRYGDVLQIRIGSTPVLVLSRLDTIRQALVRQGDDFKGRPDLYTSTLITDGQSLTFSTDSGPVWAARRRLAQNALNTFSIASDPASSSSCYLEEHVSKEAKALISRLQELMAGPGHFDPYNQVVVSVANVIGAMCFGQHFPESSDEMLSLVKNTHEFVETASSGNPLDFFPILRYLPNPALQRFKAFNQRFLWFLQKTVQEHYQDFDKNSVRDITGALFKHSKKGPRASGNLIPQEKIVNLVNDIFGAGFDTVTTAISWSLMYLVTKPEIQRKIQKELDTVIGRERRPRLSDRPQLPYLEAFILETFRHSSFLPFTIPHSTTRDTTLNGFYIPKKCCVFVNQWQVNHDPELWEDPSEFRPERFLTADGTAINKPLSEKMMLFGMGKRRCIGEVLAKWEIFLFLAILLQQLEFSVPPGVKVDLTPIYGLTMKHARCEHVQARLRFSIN
Assay: Inhibition of CYP1A2 at 20 uM assessed by effect on rate of oxidation of phenacetin O-deethylation upon incubation with human liver microsomes
Format: ADME, Microsome
Settings: probe phenacetin (O-deethylation)

>  <Record Smiles>
C[C@@H]1CCCN1CCc1cc2cc(-c3ccc(C#N)cc3)ccc2o1

>  <inhibition at 20 µM (%)>
2.4

$$$$

---

Organism: Rattus norvegicus
Assay: Lowest dose to induce CNS side effects was assessed in a general behavioral screen in rats
Assay type: functional, Central nervous system
Measured Dose values are reported for all entries that follow.

>  <Compound>
C[C@@H]1CCCN1CCc1cc2cc(C(=O)c3ccccc3F)ccc2o1

>  <Dose>
98 mg/kg

$$$$
>  <Compound>
C[C@@H](N)C(=O)N1CCN(CCCOc2ccc(C(=O)C3CC3)cc2)CC1

>  <Dose>
280 mg/kg

$$$$
>  <Compound>
C[C@@H]1CCCN1CCc1cc2cc(C(=O)c3cc(F)cc(F)c3)ccc2o1

>  <Dose>
100 mg/kg

$$$$
>  <Compound>
S=C(NC1CCCCC1)N1CCC(c2cnc[nH]2)CC1 [THIOPERAMIDE]

>  <Dose>
82 mg/kg

$$$$
>  <Compound>
C[C@@H]1CCCN1CCc1cc2cc(-c3ccc(C#N)cc3)ccc2o1

>  <Dose>
28 mg/kg

$$$$
